B1: WSB1 (parent)
chain: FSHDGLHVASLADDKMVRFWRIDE

# Variants of: B1
# Method notes: protein stability index of a GFP-peptide fusion (GPS, HEK-293T) (PSI 1-6); higher = more stable;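 also: lentivirally expressed fusions sorted by FACS into six bins by GFP to DsRed ratio, PSI derived from sequencing read proportions per bin multiplied by bin number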
# Recorded conditions: c terminus: a fixed tail appended
Assay metric: protein stability index
Lab note: record the figure alone, no unit after it.

• FSHDGLHVASLLDDKMVRFWRIDE [A12L] = 2.04

The variant listed as FSHDGLHVESLADDKMVRFWRIDE [A9E] has a reported protein stability index of 2.01

The variant listed as FSHDGLHVASLADDKMVRFWKIDE [R21K] has a reported protein stability index of 2

The variant listed as FSHDGLHVASLADRKMVRFWRIDE [D14R] has a reported protein stability index of 1.95
